Give MIC for every item shown.
# Test system: Bacillus subtilis
# EXPERIMENTAL_PROTOCOL: Antibacterial activity against Bacillus subtilis 168 incubated for 48 hrs and measured by broth microdilution assay
# Format: functional
Give bare numbers, in mg/L.

SMILES_REPR | MIC / mg/L
N=C(N)NCCCN1C(=O)N(CCCNC(=N)N)C(=O)C(Cc2ccc3cc(Br)ccc3n2)(Cc2ccc3cc(Br)ccc3n2)C1=O.O=C(O)C(F)(F)F.O=C(O)C(F)(F)F | 4

Dear colleague, could you send me MIC for each of the items below? Thanks.
1. N=C(N)NCCCN1C(=O)N(CCCNC(=N)N)C(=O)C(Cc2cc(Br)cc(Br)c2)(Cc2cc(Br)cc(Br)c2)C1=O.O=C(O)C(F)(F)F.O=C(O)C(F)(F)F
2. N[C@H]1CC[C@@H](N2C(=O)N([C@H]3CC[C@@H](N)CC3)C(=O)C(Cc3cc(Br)cc(Br)c3)(Cc3cc(Br)cc(Br)c3)C2=O)CC1.O=C(O)C(F)(F)F.O=C(O)C(F)(F)F

# output
1. 2
2. 4

----------
# EXPERIMENTAL_PROTOCOL: Selectivity index, ratio HC50 for hemolytic activity in human RBC to MIC for antibacterial activity against Escherichia coli ATCC 25922
# Type: toxicity
# DETAILS: human red blood cells (erythrocytes)
I'd be grateful if you could share measured selectivity ratio for these entries.
Answers are plain numbers.

I'm hoping you can list selectivity ratio for every compound here, please.
1. CC(C)(C)c1ccc(CC2(Cc3cc(Br)cc(Br)c3)C(=O)N(CCCNC(=N)N)C(=O)N(CCCNC(=N)N)C2=O)cc1.O=C(O)C(F)(F)F.O=C(O)C(F)(F)F (stereo not drawn)
2. NCCCN1C(=O)N(CCCN)C(=O)C(Cc2cc(C(F)(F)F)cc(C(F)(F)F)c2)(Cc2cc(C(F)(F)F)cc(C(F)(F)F)c2)C1=O.O=C(O)C(F)(F)F.O=C(O)C(F)(F)F
3. N=C(N)NCCCCN1C(=O)N(CCCCNC(=N)N)C(=O)C(Cc2cc(Br)cc(Br)c2)(Cc2cc(Br)cc(Br)c2)C1=O.O=C(O)C(F)(F)F.O=C(O)C(F)(F)F

# output
1. 85
2. 23
3. 32

----------
Record form. Attribute: selectivity ratio. Fill in for each entry.
# EXPERIMENTAL_PROTOCOL: Selectivity index, ratio HC50 for hemolytic activity in human RBC to MIC for antibacterial activity against Pseudomonas aeruginosa ATCC 27853
# Type: toxicity
# DETAILS: human red blood cells (erythrocytes)
Answers are plain numbers.

Example compounds with recorded selectivity ratio:
COMPOUND | selectivity ratio
N=C(N)NCCCN1C(=O)N(CCCNC(=N)N)C(=O)C(Cc2cc(C(F)(F)F)cc(C(F)(F)F)c2)(Cc2cc(C(F)(F)F)cc(C(F)(F)F)c2)C1=O.O=C(O)C(F)(F)F.O=C(O)C(F)(F)F | 28
NCCCN1C(=O)N(CCCN)C(=O)C(Cc2ccc(Br)c(Cl)c2)(Cc2ccc(Br)c(Cl)c2)C1=O.O=C(O)C(F)(F)F.O=C(O)C(F)(F)F | 20
NCCCN1C(=O)N(CCCN)C(=O)C(Cc2cc(C(F)(F)F)cc(C(F)(F)F)c2)(Cc2cc(C(F)(F)F)cc(C(F)(F)F)c2)C1=O.O=C(O)C(F)(F)F.O=C(O)C(F)(F)F | 23
N=C(N)NCCCCN1C(=O)N(CCCCNC(=N)N)C(=O)C(Cc2cc(Br)cc(Br)c2)(Cc2cc(Br)cc(Br)c2)C1=O.O=C(O)C(F)(F)F.O=C(O)C(F)(F)F | 8
NCCCCN1C(=O)N(CCCCN)C(=O)C(Cc2cc(Br)cc(Br)c2)(Cc2cc(Br)cc(Br)c2)C1=O.O=C(O)C(F)(F)F.O=C(O)C(F)(F)F | 10
CC(C)(C)c1ccc(CC2(Cc3cc(Br)cc(Br)c3)C(=O)N(CCCNC(=N)N)C(=O)N(CCCNC(=N)N)C2=O)cc1.O=C(O)C(F)(F)F.O=C(O)C(F)(F)F (stereo not drawn) | 11
N=C(N)NCCCCN1C(=O)N(CCCCNC(=N)N)C(=O)C(Cc2ccc(C(F)(F)F)cc2)(Cc2cc(Br)cc(Br)c2)C1=O.O=C(O)C(F)(F)F.O=C(O)C(F)(F)F (stereo not drawn) | 10

// next entry
# input selectivity ratio lookup needed for N=C(N)NCCCN1C(=O)N(CCCNC(=N)N)C(=O)C(Cc2cc(Br)cc(Br)c2)(Cc2cc(Br)cc(Br)c2)C1=O.O=C(O)C(F)(F)F.O=C(O)C(F)(F)F , thanks.
# output 23

----------
# EXPERIMENTAL_PROTOCOL: Hemolytic activity in human RBC measured after 1 hr by microplate reader method
# Type: toxicity, cell-based, Erythrocyte
# DETAILS: human, human red blood cells (erythrocytes)
Give measured log10 of EC50 at 1 h for each item. Keep answers brief.
The figures below represent log10 of EC50 at 1 h, where EC50 at 1 h is stated in mg/L.

Some compounds with recorded log10 of EC50 at 1 h:
COMPOUND | log10 of EC50 at 1 h
CCCCCCC1(Cc2cc(Br)cc(Br)c2)C(=O)N(CCCCNC(=N)N)C(=O)N(CCCCNC(=N)N)C1=O.O=C(O)C(F)(F)F.O=C(O)C(F)(F)F (configuration not stated) | 1.76
N=C(N)N[C@H]1C[C@H](N2C(=O)N([C@H]3C[C@H](NC(=N)N)C3)C(=O)C(Cc3cc(Br)cc(Br)c3)(Cc3cc(Br)cc(Br)c3)C2=O)C1.O=C(O)C(F)(F)F.O=C(O)C(F)(F)F | 1.79
NCCCCN1C(=O)N(CCCCN)C(=O)C(Cc2ccc(Br)c3ccccc23)(Cc2ccc(Br)c3ccccc23)C1=O.O=C(O)C(F)(F)F.O=C(O)C(F)(F)F | 1.43
NCCCN1C(=O)N(CCCN)C(=O)C(Cc2ccc(Br)c(Cl)c2)(Cc2ccc(Br)c(Cl)c2)C1=O.O=C(O)C(F)(F)F.O=C(O)C(F)(F)F | 2.51

Batch lookup, log10 of EC50 at 1 h per entry.
1. NCCCCCN1C(=O)N(CCCCCN)C(=O)C(Cc2cc(Br)cc(Br)c2)(Cc2cc(Br)cc(Br)c2)C1=O.O=C(O)C(F)(F)F.O=C(O)C(F)(F)F
2. NCCCCN1C(=O)N(CCCCN)C(=O)C(Cc2cc(Br)cc(Br)c2)(Cc2cc(C(F)(F)F)cc(C(F)(F)F)c2)C1=O.O=C(O)C(F)(F)F.O=C(O)C(F)(F)F
3. CCCCCCC1(CCCCCC)C(=O)N(CCCCNC(=N)N)C(=O)N(CCCCNC(=N)N)C1=O.O=C(O)C(F)(F)F.O=C(O)C(F)(F)F
4. CN(C)CCCCN1C(=O)N(CCCCN(C)C)C(=O)C(Cc2cc(Br)cc(Br)c2)(Cc2cc(Br)cc(Br)c2)C1=O.O=C(O)C(F)(F)F.O=C(O)C(F)(F)F

# output
1.38
1.97
2.16
2.20

For the 2 compounds below, give their log10 of EC50 at 1 h values.
1. N=C(N)NCCCCN1C(=O)N(CCCCNC(=N)N)C(=O)C(Cc2cc(Br)cc(Br)c2)(Cc2cc(C(F)(F)F)cc(C(F)(F)F)c2)C1=O.O=C(O)C(F)(F)F.O=C(O)C(F)(F)F (configuration not stated)
2. N=C(N)NCCCCN1C(=O)N(CCCCNC(=N)N)C(=O)C(Cc2cc(Br)cc(Br)c2)(Cc2cc(Br)cc(Br)c2)C1=O.O=C(O)C(F)(F)F.O=C(O)C(F)(F)F

# output
1.56
1.79

----------
# Test system: Pseudomonas aeruginosa
# EXPERIMENTAL_PROTOCOL: Antibacterial activity against Pseudomonas aeruginosa ATCC 27853 incubated for 48 hrs and measured by broth microdilution assay
# Format: functional
Answer each item with its documented log10 MIC.
// units: µg/mL (pre-log); metric: MIC; scale: log10

// below: answered molecules
MOLECULE | TARGET_UNDER_TEST | log10 MIC
N=C(N)NCCCCN1C(=O)N(CCCCNC(=N)N)C(=O)C(Cc2cc(Br)c(Br)cc2Br)(Cc2cc(Br)c(Br)cc2Br)C1=O.O=C(O)C(F)(F)F.O=C(O)C(F)(F)F | Pseudomonas aeruginosa | 0.90
N=C(N)NCCCN1C(=O)N(CCCNC(=N)N)C(=O)C(Cc2ccc(C(F)(F)F)cc2)(Cc2cc(Br)cc(Br)c2)C1=O.O=C(O)C(F)(F)F.O=C(O)C(F)(F)F (configuration not stated) | Pseudomonas aeruginosa | 1.81
N=C(N)N[C@H]1C[C@H](N2C(=O)N([C@H]3C[C@H](NC(=N)N)C3)C(=O)C(Cc3cc(Br)cc(Br)c3)(Cc3cc(Br)cc(Br)c3)C2=O)C1.O=C(O)C(F)(F)F.O=C(O)C(F)(F)F | Pseudomonas aeruginosa | 0.90
CN(C)CCCCN1C(=O)N(CCCCN(C)C)C(=O)C(Cc2cc(Br)cc(Br)c2)(Cc2cc(Br)cc(Br)c2)C1=O.O=C(O)C(F)(F)F.O=C(O)C(F)(F)F | Pseudomonas aeruginosa | 1.81

Lab note: each molecule below needs its log10 MIC filled in.
1. NCCCCN1C(=O)N(CCCCN)C(=O)C(Cc2c(Br)cc(Br)cc2Br)(Cc2c(Br)cc(Br)cc2Br)C1=O.O=C(O)C(F)(F)F.O=C(O)C(F)(F)F
2. NCCCN1C(=O)N(CCCN)C(=O)C(Cc2ccc3cc(Br)ccc3n2)(Cc2ccc3cc(Br)ccc3n2)C1=O.O=C(O)C(F)(F)F.O=C(O)C(F)(F)F
3. NCCCN1C(=O)N(CCCN)C(=O)C(Cc2ccc(C(F)(F)F)cc2)(Cc2cc(Br)cc(Br)c2)C1=O.O=C(O)C(F)(F)F.O=C(O)C(F)(F)F
4. N=C(N)NCCCN1C(=O)N(CCCNC(=N)N)C(=O)C(Cc2ccc(Br)c3ccccc23)(Cc2ccc(Br)c3ccccc23)C1=O.O=C(O)C(F)(F)F.O=C(O)C(F)(F)F
5. N=C(N)N[C@H]1C[C@@H](N2C(=O)N([C@H]3C[C@@H](NC(=N)N)C3)C(=O)C(Cc3cc(Br)cc(Br)c3)(Cc3cc(Br)cc(Br)c3)C2=O)C1.O=C(O)C(F)(F)F.O=C(O)C(F)(F)F
6. NCCCCN1C(=O)N(CCCCN)C(=O)C(Cc2ccc(C(F)(F)F)cc2)(Cc2cc(Br)cc(Br)c2)C1=O.O=C(O)C(F)(F)F.O=C(O)C(F)(F)F
7. NCCCN1C(=O)N(CCCN)C(=O)C(Cc2cc(C(F)(F)F)cc(C(F)(F)F)c2)(Cc2cc(C(F)(F)F)cc(C(F)(F)F)c2)C1=O.O=C(O)C(F)(F)F.O=C(O)C(F)(F)F

# output
[0.60, 2.41, 1.51, 0.90, 0.90, 1.81, 0.90]

# input Requested read-out: log10 MIC. Entry: NCCCN1C(=O)N(CCCN)C(=O)C(Cc2cc(Br)cc(Br)c2)(Cc2cc(Br)cc(Br)c2)C1=O.O=C(O)C(F)(F)F.O=C(O)C(F)(F)F
# output 0.90
